Ref: paper PMC6733935

target.or.test.system: BN/GRP receptor-positive MDA-MB-231 human breast cancer cells (Homo sapiens)
Construct: BN/GRP receptor-positive MDA-MB-231, MCF7, T47D human breast cancer, and PC3 human prostate cancer lines; host or cells: MDA-MB-231, MCF7, T47D (human breast cancer), PC3 (human prostate cancer); intact cells
assay.name: Saturation binding assay on MDA-MB-231 cells
stated.conditions: n = 3-5 experiments, SD < 15%
Numbered stars: 1 amine (or outer) side, 2 acyl side, 3 side chain; on linkers, the order of the positions; unused ones are H or OH. Square brackets hold non-standard residues; d marks the D form. Peptide text beside a SMILES is read from it. * marks the point of attachment. DOTA = O=C(O)CN1CCN(CC(=O)O)CCN(CC(=O)*)CCN(CC(=O)O)CC1; Cha = N[C@@H](CC1CCCCC1)C(=O)O; X1 = O=C(CCC(=O)[*:2])CN[*:1]; 4Abz = Nc1ccc(C(=O)O)cc1; Nle = CCCC[C@H](N)C(=O)O; Ahx = NCCCCCC(=O)O
observed.property: Bmax (apparent number of binding sites per cell)

* CCCC[C@H](NC(=O)[C@H](Cc1c[nH]cn1)NC(=O)[C@H](CC1CCCCC1)NC(=O)[C@@H](NC(=O)[C@H](C)NC(=O)[C@H](Cc1c[nH]c2ccccc12)NC(=O)[C@H](CCC(N)=O)NC(=O)[C@H](CS)NC(=O)CNC(=O)CNC(=O)CCC(=O)CNC(=O)CN1CCN(CC(=O)O)CCN(CC(=O)O)CCN(CC(=O)O)CC1)C(C)C)C(=O)N[C@@H](CCSC)C(N)=O [^68Ga-DOTA-ALA-BN Cyclen, metal not drawn] ({DOTA}-[X1]GGCQWAV[Cha]H[Nle]M-NH2) | 1.02 × 10^5 sites/cell
* CCCC[C@H](NC(=O)[C@H](Cc1c[nH]cn1)NC(=O)[C@H](CC1CCCCC1)NC(=O)[C@@H](NC(=O)[C@H](C)NC(=O)[C@H](Cc1c[nH]c2ccccc12)NC(=O)[C@H](CCC(N)=O)NC(=O)[C@H](CS)NC(=O)CNC(=O)CNC(=O)CCCCCNC(=O)CN1CCN(CC(=O)O)CCN(CC(=O)O)CCN(CC(=O)O)CC1)C(C)C)C(=O)N[C@@H](CCSC)C(N)=O [^68Ga-DOTA-Ahx-BN Cyclen, metal not drawn] ({DOTA-Ahx}-GGCQWAV[Cha]H[Nle]M-NH2) | 5.13 × 10^5 sites/cell
* CCCC[C@H](NC(=O)[C@H](Cc1c[nH]cn1)NC(=O)[C@H](CC1CCCCC1)NC(=O)[C@@H](NC(=O)[C@H](C)NC(=O)[C@H](Cc1c[nH]c2ccccc12)NC(=O)[C@H](CCC(N)=O)NC(=O)[C@H](CS)NC(=O)CNC(=O)CNC(=O)c1ccc(NC(=O)CN2CCN(CC(=O)O)CCN(CC(=O)O)CCN(CC(=O)O)CC2)cc1)C(C)C)C(=O)N[C@@H](CCSC)C(N)=O [^68Ga-DOTA-Abz-BN Cyclen, metal not drawn] ({DOTA-4Abz}-GGCQWAV[Cha]H[Nle]M-NH2) | 6.09 × 10^5 sites/cell

Can you look up the measured Bmax (apparent number of binding sites per cell) of CCCC[C@H](NC(=O)[C@H](Cc1c[nH]cn1)NC(=O)[C@H](CC1CCCCC1)NC(=O)[C@@H](NC(=O)[C@H](C)NC(=O)[C@H](Cc1c[nH]c2ccccc12)NC(=O)[C@H](CCC(N)=O)NC(=O)[C@H](CS)NC(=O)CNC(=O)CNC(=O)CCCCCNC(=O)CN1CCN(CC(=O)O)CCN(CC(=O)O)CCN(CC(=O)O)CC1)C(C)C)C(=O)N[C@@H](CCSC)C(N)=O [^68Ga-DOTA-Ahx-BN Tris-, metal not drawn] ({DOTA-Ahx}-GGCQWAV[Cha]H[Nle]M-NH2) for me?
5.27 × 10^5 sites/cell

Do the same for CCCC[C@H](NC(=O)[C@H](Cc1c[nH]cn1)NC(=O)[C@H](CC1CCCCC1)NC(=O)[C@@H](NC(=O)[C@H](C)NC(=O)[C@H](Cc1c[nH]c2ccccc12)NC(=O)[C@H](CCC(N)=O)NC(=O)[C@H](CS)NC(=O)CNC(=O)CNC(=O)c1ccc(NC(=O)CN2CCN(CC(=O)O)CCN(CC(=O)O)CCN(CC(=O)O)CC2)cc1)C(C)C)C(=O)N[C@@H](CCSC)C(N)=O [^68Ga-DOTA-Abz-BN Tris-, metal not drawn] ({DOTA-4Abz}-GGCQWAV[Cha]H[Nle]M-NH2) please
5.89 × 10^5 sites/cell

Do the same for CCCC[C@H](NC(=O)[C@H](Cc1c[nH]cn1)NC(=O)[C@H](CC1CCCCC1)NC(=O)[C@@H](NC(=O)[C@H](C)NC(=O)[C@H](Cc1c[nH]c2ccccc12)NC(=O)[C@H](CCC(N)=O)NC(=O)[C@H](CS)NC(=O)CNC(=O)CNC(=O)CCC(=O)CNC(=O)CN1CCN(CC(=O)O)CCN(CC(=O)O)CCN(CC(=O)O)CC1)C(C)C)C(=O)N[C@@H](CCSC)C(N)=O [^68Ga-DOTA-ALA-BN Tris-, metal not drawn] ({DOTA}-[X1]GGCQWAV[Cha]H[Nle]M-NH2) please
1.12 × 10^5 sites/cell
